# Measured On: T1, recombinant human ErbB2/Fc chimera (human, UniProt P04626 23-652)
# T1 construct: bought from R&D Systems; also called rhErbB2-Fc; rhErb2-Fc; Fc part of the bought chimera not given; not described
# Experiment Notes: ELISA, coated ErbB2/Fc
Metric Name: binding result

binder="22B101/1-123 (VHH, C-term myc-His6 tag) VHH: EVQLVESGGGLVQTGGSLRLSCAASGPTFSDYAIGWFRQAPGKEREFVAAISSSGISTIYGDSVKGRFDISRDNAKNTVYLQMNRLKPEDTAVYYCAARLFMATPNQGQYYYWGQGTQVTVSS" metric_name="binding result" experimental_value=binds
binder="118N121_B3_1_OK/1-123 (VHH, C-term myc-His6 tag) VHH: EVQLVESGGGLVQPGGSLRLSCAASGRTFSDLALGWFRRAPGKEREHVAAISSSGVTTIYADSVRGRFTISRDEAKNTVYLEMNSLKTDDTAVYYCAARLTMATPNQSQYYYWGQGTQVTVSS" metric_name="binding result" experimental_value=binds
